Just for reference, the supplement of paper PMC11732987 is where these values come from.

Here the recorded log2 ratio of Biotin-Ahx-Ub-VS probe labelling is given for each entry.
Target: UniProt O00487
Sequence (O00487 whole entry, the tested form may be a part): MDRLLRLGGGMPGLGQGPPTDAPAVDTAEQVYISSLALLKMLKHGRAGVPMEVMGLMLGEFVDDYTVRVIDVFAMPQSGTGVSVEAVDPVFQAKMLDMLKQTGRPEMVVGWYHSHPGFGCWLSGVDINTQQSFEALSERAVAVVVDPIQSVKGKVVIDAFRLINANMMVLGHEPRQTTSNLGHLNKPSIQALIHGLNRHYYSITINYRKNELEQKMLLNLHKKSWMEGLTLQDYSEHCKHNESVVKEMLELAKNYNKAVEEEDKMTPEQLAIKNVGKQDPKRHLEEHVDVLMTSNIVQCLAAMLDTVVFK
Assay: log2 ratio of Biotin-Ahx-Ub-VS probe labelling (fragment/DMSO); higher = less target engagement (more negative = stronger competition), active = hit call of the paper (q ≤ 0.05, log2 ratio ≤ -1)
Conditions: compound concentration: 200 uM; treatment time: 3 h
Lab note: record just the number, no unit beside it.

Please review the following examples before continuing.
O=C(CCl)N1CCCCC12CCOCC2 :: -0.282
Cl.O=C(CCl)N1CCn2cncc2C1 :: -0.0669
COCC1C=CCCN1C(=O)CCl (configuration not stated) :: -0.0987
O=C(CCl)N1CCC(C(=O)N2CCCC2)CC1 :: -0.108
O=C(CN1CCN(C(=O)CCl)CC1)Nc1cccc(F)c1 :: 0.0211
O=C(CCl)N1CCOC2(CCC2)CC1 :: 0.0511
O=C(CCl)N1CCC(O)(Cc2ccc(F)cc2)C1 (configuration not stated) :: -0.0616
O=C(CCl)N1CCCC2CCCCC21 (configuration not stated) :: -0.107
Cc1ccc(CN(CCO)C(=O)CCl)cc1 :: -0.0465
O=C(CCl)N1CCC(C(=O)N2CCCCCC2)CC1 :: -0.112

Requested read-out log2 ratio of Biotin-Ahx-Ub-VS probe labelling, target or system UniProt O00487, entry O=C(CCl)N1CCOC(CCc2ccccc2)C1 (configuration not stated)
-0.235

// next record `O=C(CCl)N(Cc1ccsc1)C1CC1`
0.0101

====

Target: USP15 (UniProt Q9Y4E8)
Sequence (Q9Y4E8 whole entry, the tested form may be a part): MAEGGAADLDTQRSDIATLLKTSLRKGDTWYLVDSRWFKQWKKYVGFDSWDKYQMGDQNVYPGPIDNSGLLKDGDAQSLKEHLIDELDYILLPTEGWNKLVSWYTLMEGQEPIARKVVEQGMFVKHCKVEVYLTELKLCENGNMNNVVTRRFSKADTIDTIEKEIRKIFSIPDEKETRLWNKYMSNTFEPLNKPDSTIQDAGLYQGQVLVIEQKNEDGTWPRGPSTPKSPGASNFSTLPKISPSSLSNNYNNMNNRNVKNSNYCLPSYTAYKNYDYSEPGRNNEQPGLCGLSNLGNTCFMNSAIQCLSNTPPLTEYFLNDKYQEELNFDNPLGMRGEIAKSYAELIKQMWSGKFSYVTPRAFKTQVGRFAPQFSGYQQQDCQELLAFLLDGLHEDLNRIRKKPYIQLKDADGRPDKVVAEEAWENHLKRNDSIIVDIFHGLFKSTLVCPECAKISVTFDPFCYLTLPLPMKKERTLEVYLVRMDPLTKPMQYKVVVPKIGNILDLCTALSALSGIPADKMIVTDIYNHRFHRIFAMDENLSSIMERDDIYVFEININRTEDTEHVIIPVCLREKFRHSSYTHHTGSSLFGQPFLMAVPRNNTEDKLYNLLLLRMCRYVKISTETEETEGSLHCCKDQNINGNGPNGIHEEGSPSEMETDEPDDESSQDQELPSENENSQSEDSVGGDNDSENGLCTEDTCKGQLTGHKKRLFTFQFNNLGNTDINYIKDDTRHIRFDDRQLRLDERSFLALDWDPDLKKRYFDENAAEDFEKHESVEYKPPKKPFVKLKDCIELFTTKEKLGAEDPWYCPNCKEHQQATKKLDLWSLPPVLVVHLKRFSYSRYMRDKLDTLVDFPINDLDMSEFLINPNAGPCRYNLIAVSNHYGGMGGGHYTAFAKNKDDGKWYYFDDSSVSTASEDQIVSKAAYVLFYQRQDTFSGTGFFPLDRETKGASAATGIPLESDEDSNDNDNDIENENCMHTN
Assay: log2 ratio of Biotin-Ahx-Ub-VS probe labelling (fragment/DMSO); higher = less target engagement (more negative = stronger competition), active = hit call of the paper (q ≤ 0.05, log2 ratio ≤ -1)
Conditions: compound concentration: 200 uM; treatment time: 3 h
// map log2 ratio of Biotin-Ahx-Ub-VS probe labelling to label using low = under -0.3, medium = from -0.3 up to -0.1, high = -0.1 and over

Use the examples below as a reference point.
Cc1cccc(N(CCC#N)C(=O)CCl)c1C :: high
CC(C)n1nccc1NC(=O)CCl :: low
CC(c1ccccc1)N(C)C(=O)CCl (centres undefined) :: low
COc1cc(Cl)c(C)cc1NC(=O)CCl :: medium
Cl.O=C(CCl)N1CCn2cncc2C1 :: low

For the record `O=C(CCl)N1CCCCC12CCOCC2` , report the class its log2 ratio of Biotin-Ahx-Ub-VS probe labelling corresponds to.
low

Repeat with Cc1ccc(CC(CO)CNC(=O)CCl)cc1 (centres undefined)
medium

Now the molecule `CNC(=O)C1CCN(C(=O)CCl)CC1`
high

Also need `CNC(=O)Cn1cc(NC(=O)CCl)cn1` , thanks.
low

Also `COc1cccc(CN(C)C(=O)CCl)c1` , if possible.
medium

Same question for `Cc1nc(CNC(=O)CCl)c2ccccn12.Cl` please.
low

Also need COCC1C=CCCN1C(=O)CCl (centres undefined) , thanks.
medium

And what about the molecule NC(=O)C(Cc1ccccc1)NC(=O)CCl (centres undefined) ?
high

Try `O=C(CCl)NCCc1ccc2c(c1)OCCO2` next.
medium

Next molecule up: `O=C(CCl)Nc1ccc(Cl)c(F)c1`
low

Cool, now CC(NC(=O)CCl)c1csc(-c2ccccc2)n1.Cl (centres undefined)
low

What do you have for CN(CCC(O)c1ccc(Br)cc1)C(=O)CCl (centres undefined) ?
low

Cool, now Cc1ccc(N(C(=O)CCl)C2C=CS(=O)(=O)C2)cc1 (centres undefined)
medium

Try the molecule `O=C(CCl)Nc1cc(Cl)ccc1-n1cncn1`
low

Now consider `O=C(CCl)NCc1cccc(N2CCCC2=O)c1` and answer again.
high

Entry to check: `O=C(CCl)N1CCN(C(=O)N2CCCCC2)CC1`
low

// next record CC(NC(=O)CCl)c1cccc2ccccc12 (centres undefined)
medium

Cool, now `Cc1cc(Cl)ccc1NC(=O)CCl`
medium

Would you kindly repeat that for O=C(CCl)NCCC1COCCO1 (centres undefined) ?
high

====

Target: UniProt P51784
Sequence (P51784 whole entry, the tested form may be a part): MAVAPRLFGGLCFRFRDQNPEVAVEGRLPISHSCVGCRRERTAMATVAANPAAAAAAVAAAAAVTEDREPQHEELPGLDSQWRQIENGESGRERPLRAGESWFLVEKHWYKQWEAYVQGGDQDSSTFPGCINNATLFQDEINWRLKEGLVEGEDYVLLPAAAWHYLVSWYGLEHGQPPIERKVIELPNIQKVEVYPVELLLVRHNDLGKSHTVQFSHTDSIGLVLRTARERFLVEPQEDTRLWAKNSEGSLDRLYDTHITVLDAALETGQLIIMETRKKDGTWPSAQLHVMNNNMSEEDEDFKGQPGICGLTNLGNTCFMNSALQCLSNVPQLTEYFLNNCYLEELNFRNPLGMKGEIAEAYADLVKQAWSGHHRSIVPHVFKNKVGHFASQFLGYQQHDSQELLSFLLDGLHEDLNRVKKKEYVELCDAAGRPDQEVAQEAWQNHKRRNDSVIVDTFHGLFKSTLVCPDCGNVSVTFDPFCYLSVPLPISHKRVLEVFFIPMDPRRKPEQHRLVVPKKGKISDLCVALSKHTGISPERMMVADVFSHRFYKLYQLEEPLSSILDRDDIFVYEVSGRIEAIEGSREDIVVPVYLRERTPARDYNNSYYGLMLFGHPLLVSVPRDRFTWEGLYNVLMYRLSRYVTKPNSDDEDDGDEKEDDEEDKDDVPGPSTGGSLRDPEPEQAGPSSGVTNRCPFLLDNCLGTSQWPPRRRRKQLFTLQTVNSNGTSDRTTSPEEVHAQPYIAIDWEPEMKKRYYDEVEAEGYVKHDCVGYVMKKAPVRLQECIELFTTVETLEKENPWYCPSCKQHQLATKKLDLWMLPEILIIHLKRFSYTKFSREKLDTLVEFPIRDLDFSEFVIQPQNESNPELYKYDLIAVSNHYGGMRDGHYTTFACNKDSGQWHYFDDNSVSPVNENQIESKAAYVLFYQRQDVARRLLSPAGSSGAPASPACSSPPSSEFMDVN
Assay: log2 ratio of Biotin-Ahx-Ub-VS probe labelling (fragment/DMSO); higher = less target engagement (more negative = stronger competition), active = hit call of the paper (q ≤ 0.05, log2 ratio ≤ -1)
Details: compound concentration: 200 uM; treatment time: 3 h
In this section we review reported log2 ratio of Biotin-Ahx-Ub-VS probe labelling values for a set of compounds.
Give a plain numeric answer without units written out.

// log2 ratio of Biotin-Ahx-Ub-VS probe labelling lookup, key: `O=C(CCl)N1CCN(c2nc3ccccc3o2)CC1`
-0.255

====

// reported log2 ratio of Biotin-Ahx-Ub-VS probe labelling for each item listed
Target: UniProt Q8TE49
Sequence (whole entry): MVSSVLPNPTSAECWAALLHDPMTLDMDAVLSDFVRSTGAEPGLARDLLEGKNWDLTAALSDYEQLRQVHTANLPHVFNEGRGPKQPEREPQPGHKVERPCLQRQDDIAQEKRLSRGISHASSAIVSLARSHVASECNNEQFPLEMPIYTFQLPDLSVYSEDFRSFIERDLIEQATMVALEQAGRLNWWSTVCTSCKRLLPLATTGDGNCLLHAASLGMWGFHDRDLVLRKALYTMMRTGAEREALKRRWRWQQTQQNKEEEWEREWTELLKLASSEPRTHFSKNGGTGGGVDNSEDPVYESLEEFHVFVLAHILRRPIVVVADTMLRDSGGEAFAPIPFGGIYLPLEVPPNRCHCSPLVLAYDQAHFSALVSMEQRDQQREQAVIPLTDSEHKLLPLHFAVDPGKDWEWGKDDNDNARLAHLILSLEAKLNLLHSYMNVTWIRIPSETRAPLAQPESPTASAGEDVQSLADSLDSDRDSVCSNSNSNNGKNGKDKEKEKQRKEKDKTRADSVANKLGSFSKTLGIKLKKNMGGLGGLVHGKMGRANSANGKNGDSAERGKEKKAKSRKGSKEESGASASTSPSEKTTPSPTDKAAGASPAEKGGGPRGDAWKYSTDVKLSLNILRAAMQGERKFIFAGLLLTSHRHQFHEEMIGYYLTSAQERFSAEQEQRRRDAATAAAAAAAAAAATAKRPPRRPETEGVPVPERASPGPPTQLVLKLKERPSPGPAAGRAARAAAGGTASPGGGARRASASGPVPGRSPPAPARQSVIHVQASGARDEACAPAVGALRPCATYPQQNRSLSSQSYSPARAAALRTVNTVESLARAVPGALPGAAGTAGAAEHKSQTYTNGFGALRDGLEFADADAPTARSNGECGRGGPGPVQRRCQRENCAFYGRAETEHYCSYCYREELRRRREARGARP
Assay: log2 ratio of Biotin-Ahx-Ub-VS probe labelling (fragment/DMSO); higher = less target engagement (more negative = stronger competition), active = hit call of the paper (q ≤ 0.05, log2 ratio ≤ -1)
Settings: compound concentration: 200 uM; treatment time: 3 h
Output: the number by itself.

Consider the following illustrative entries.
O=C(CN1CCN(C(=O)CCl)CC1)Nc1cccc(F)c1 :: -0.292
CN(CCc1ncc(Br)cn1)C(=O)CCl.Cl :: -1.75
CCN(Cc1ccc(C#N)cc1F)C(=O)CCl :: -0.525
CCN(C(=O)CCl)C1CCCCC1 :: -0.32
CCC(NC(=O)CCl)c1ccc(Cl)cc1 (configuration not stated) :: -0.735

Endpoint output: log2 ratio of Biotin-Ahx-Ub-VS probe labelling of `Cc1cccc(NC(=O)[C@@H]2CCCN2C(=O)CCl)n1` . Value?
-0.721

Could you do the same for Cc1cc(CC(C)NC(=O)CCl)n[nH]1 (configuration not stated) , please?
0.0154

====

Biological target: USP7 (UniProt Q93009)
Sequence (Q93009 whole entry, looked up, the tested form may be a part): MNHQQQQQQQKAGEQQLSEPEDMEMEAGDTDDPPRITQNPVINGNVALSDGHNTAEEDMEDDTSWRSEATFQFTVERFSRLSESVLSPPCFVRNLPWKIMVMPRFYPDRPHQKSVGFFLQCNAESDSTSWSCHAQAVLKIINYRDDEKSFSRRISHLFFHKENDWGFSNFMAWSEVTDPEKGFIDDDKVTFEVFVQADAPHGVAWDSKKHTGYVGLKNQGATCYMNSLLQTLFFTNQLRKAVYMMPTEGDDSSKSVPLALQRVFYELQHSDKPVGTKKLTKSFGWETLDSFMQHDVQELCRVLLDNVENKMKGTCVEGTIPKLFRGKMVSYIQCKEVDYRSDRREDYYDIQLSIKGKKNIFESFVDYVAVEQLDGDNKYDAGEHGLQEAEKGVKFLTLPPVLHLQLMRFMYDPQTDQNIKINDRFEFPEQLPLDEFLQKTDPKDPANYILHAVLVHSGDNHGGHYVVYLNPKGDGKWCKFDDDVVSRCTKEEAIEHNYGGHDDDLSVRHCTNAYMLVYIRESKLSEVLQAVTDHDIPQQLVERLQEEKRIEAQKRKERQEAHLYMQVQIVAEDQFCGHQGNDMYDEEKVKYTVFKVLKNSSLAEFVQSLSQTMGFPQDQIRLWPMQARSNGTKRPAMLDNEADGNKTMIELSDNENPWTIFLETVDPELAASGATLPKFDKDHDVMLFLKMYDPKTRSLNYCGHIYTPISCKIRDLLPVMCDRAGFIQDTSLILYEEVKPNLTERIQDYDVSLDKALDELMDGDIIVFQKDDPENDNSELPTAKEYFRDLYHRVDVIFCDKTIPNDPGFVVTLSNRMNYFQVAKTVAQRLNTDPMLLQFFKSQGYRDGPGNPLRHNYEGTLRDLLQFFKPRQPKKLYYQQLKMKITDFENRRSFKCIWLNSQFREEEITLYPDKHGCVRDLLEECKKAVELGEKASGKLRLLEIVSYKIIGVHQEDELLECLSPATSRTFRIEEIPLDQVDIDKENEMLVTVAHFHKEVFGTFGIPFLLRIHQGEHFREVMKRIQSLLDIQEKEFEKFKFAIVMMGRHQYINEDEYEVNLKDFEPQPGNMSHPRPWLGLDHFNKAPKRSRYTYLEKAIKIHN
Test: log2 ratio of Biotin-Ahx-Ub-VS probe labelling (fragment/DMSO); higher = less target engagement (more negative = stronger competition), active = hit call of the paper (q ≤ 0.05, log2 ratio ≤ -1)
Settings: compound concentration: 200 uM; treatment time: 3 h
readoutKind: log2 ratio of Biotin-Ahx-Ub-VS probe labelling

Study these solved cases before continuing.
O=C(CCl)N(Cc1ccsc1)C1CC1 :: -1.25 (active)
O=C(CCl)NCc1ccc(N2CCOCC2)c(F)c1 :: -0.046 (inactive)

What log2 ratio of Biotin-Ahx-Ub-VS probe labelling value was documented for this compound, `O=C(CCl)N(C1=CCCCC1)C1CC1` ?
-0.612 (inactive)

Now this one: `Cc1cc(C(=O)NC2CCN(C(=O)CCl)CC2)no1`
-0.222 (inactive)

Query `O=C(CCl)NCc1ccc2c(c1)OCO2` next
-0.297 (inactive)

Further, for O=C(O)C1Cc2ccccc2CN1C(=O)CCl (configuration not stated) ?
-0.333 (inactive)

Please do the same for `O=C(CN1CCN(C(=O)CCl)CC1)Nc1cccc(F)c1` as well.
-0.436 (inactive)

====

Target: OTUB1 (UniProt Q96FW1)
Sequence (Q96FW1 whole entry, the tested form may be a part): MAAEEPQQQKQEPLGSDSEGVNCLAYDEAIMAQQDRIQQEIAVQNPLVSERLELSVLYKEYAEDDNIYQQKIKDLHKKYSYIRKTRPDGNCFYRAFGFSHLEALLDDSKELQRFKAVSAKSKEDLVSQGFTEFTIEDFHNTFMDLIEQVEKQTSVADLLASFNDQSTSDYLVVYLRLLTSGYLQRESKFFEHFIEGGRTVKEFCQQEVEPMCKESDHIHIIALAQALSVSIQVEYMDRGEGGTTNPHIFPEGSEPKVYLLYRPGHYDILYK
Assay: log2 ratio of Biotin-Ahx-Ub-VS probe labelling (fragment/DMSO); higher = less target engagement (more negative = stronger competition), active = hit call of the paper (q ≤ 0.05, log2 ratio ≤ -1)
Conditions: compound concentration: 200 uM; treatment time: 3 h
readoutKind: log2 ratio of Biotin-Ahx-Ub-VS probe labelling
# respond with the number and nothing more

COc1ccc(-c2csc(NC(=O)CCl)n2)cc1 :: -0.0658
CC(NC(=O)CCl)c1csc(-c2ccccc2)n1.Cl (centres undefined) :: -0.0384
O=C(CCl)N1CCC(c2noc3cc(F)ccc23)CC1 :: -0.253

Requested read-out log2 ratio of Biotin-Ahx-Ub-VS probe labelling, target or system OTUB1 (UniProt Q96FW1), entry `O=C(CCl)NC1CCC2(CC1)OCCO2`
-0.114

And the next one, O=C(CCl)N1CCC(C(O)c2ccc(F)cc2)CC1 (centres undefined) ?
-0.215

Item: O=C(CCl)N1CCCCCC1c1ncon1 (centres undefined)
0.099

Subsequent entry: `Cc1ccc(C)c(NC(=O)CCl)c1`
-0.23

For CC1CCc2onc(CNC(=O)CCl)c2C1 (centres undefined) then?
0.048

Further, for O=C(CCl)NCCC1COCCO1 (centres undefined) ?
-0.233
